Every entry's value here was drawn from patent US20020160975A1.

Target: T1, XIAP (Homo sapiens, UniProt P98170)
T1 construct: made in house; host or cells: in vitro translation (cell-free)
T1 sequence (P98170 whole entry): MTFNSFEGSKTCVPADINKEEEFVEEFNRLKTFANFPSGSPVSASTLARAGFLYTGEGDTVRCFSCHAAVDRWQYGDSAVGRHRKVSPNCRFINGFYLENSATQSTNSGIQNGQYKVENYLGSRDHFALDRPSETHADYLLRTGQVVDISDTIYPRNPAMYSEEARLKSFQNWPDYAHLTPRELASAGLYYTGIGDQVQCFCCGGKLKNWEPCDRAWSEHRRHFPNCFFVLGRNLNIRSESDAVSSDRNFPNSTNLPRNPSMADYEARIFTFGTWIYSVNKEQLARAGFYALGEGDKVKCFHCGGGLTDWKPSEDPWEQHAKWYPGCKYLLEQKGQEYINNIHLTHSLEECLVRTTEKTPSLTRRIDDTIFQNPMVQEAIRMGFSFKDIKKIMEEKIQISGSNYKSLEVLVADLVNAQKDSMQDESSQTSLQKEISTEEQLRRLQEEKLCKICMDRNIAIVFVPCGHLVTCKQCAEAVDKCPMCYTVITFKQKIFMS
Assay: Far Western blot analysis with 35S-labeled XIAP
Format: binding
Conditions: proteins on nitrocellulose membrane, denatured and renatured
ASSAY METRIC: binding of XIAP by Far Western

Smac-GST: mature Smac/DIABLO GST-fusion protein (protein, left off: a dimerising Fc or GST, mature Smac/DIABLO GST-fusion protein) AVPIAQKSEPHSLSSEALMRRAVSLVTDSTSTFLSQTTYALIEAITEYTKAVYTLTSLYRQYTSLLGKMNSEEEDEVWQVIIGARAEMTSKHQEYLKLETTWMTAVGLSEMAAEAAYQTGADQASITARNHIQLVKLQVEEVHQLSRKAETKLAEAQIEELRQKTQEEGEERAESEQEAYLRED	able to bind
p12: C-terminal GST fusion protein of Caspase-9-p12 (residues 316-416 of SEQ ID NO:1) (protein, left off: a dimerising Fc or GST) ATPFQEGLRTFDQLDAISSLPTPSDIFVSYSTFPGFVSWRDPKSGSWYVETLDDIFEQWAHSEDLQSLLLRVANAVSVKGIYKQMPGCFNFLRKKLFFKTS	able to bind
